FYI, the data here is from patent US8779197B2.

Target: NaV1.3 (Homo sapiens)
Sequence (Q9NY46 whole entry): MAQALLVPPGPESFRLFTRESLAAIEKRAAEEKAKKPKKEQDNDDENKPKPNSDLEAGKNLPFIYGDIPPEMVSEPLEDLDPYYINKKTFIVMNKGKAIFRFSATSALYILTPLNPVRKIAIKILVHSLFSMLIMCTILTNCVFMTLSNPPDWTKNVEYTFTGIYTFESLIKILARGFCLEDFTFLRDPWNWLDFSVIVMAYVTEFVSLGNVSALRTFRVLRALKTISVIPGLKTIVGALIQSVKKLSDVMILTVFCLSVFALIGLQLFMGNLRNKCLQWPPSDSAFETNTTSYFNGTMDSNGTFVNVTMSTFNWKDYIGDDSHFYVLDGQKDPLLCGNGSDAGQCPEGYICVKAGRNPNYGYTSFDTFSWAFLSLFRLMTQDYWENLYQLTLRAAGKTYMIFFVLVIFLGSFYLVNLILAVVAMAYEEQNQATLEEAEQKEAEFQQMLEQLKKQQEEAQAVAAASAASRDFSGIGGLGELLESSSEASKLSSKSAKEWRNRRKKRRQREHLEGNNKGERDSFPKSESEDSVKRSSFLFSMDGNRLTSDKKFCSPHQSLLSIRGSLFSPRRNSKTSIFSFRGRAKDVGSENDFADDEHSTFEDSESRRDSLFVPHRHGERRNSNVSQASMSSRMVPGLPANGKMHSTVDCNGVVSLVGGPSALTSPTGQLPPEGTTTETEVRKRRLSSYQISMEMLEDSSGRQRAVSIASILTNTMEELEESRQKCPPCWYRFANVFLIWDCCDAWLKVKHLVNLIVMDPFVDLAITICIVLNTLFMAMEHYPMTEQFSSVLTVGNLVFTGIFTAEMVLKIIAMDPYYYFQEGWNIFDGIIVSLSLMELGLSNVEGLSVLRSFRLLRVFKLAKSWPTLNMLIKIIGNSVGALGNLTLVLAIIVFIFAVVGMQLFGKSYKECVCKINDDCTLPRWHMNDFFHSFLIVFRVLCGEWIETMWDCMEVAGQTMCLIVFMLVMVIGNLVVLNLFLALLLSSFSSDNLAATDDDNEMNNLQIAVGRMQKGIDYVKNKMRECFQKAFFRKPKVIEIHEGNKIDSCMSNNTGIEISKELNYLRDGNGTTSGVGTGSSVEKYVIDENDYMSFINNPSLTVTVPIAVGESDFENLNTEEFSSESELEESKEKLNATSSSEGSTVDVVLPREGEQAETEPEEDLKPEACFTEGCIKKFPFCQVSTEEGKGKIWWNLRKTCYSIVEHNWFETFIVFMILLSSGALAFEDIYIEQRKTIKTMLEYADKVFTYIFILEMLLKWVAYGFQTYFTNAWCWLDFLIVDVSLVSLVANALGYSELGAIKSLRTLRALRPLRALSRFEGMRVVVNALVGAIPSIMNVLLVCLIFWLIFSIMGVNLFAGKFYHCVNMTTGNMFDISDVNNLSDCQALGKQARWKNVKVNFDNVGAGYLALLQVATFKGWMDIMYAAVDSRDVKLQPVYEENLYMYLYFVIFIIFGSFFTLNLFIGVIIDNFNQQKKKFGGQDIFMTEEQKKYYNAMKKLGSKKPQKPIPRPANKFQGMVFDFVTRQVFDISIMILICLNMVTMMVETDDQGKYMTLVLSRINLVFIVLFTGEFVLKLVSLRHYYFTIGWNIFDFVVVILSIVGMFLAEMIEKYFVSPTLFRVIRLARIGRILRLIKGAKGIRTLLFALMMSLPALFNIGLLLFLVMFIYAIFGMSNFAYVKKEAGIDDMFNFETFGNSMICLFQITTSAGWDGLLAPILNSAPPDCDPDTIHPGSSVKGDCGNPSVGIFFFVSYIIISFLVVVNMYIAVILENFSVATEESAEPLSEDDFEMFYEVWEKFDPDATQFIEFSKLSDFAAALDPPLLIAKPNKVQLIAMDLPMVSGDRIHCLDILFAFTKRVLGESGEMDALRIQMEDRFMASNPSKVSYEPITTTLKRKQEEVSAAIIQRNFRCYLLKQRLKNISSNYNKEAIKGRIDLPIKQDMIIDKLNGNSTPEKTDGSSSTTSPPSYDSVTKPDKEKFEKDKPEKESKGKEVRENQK
Assay: Activity against NaV 1.3 channel (optical membrane potential assay)
Assay type: cell-based
Design: expressed in transfected cells; host or cells: HEK293
Method: Compounds of the invention are useful as antagonists of voltage-gated sodium ion channels. Antagonist properties of test compounds were assessed as follows. Cells expressing the NaV of interest were placed into microtiter plates. […] The cells were stimulated with either a chemical or electrical means to evoke a NaV dependent membrane potential change from unblocked channels, which was detected and measured with trans-membrane potential-sensitive dyes. […]
In this section, each of the molecules is paired with its reported IC50.
Readout Label: IC50

>>> reported("NC(=O)c1cccc(NC(=O)c2ccccc2Oc2ccc(Br)cc2)c1")
"2 to 10 µM"
>>> reported("NC(=O)c1cccc(NC(=O)c2ccccc2Nc2cccc(F)c2)c1")
"> 20 µM"
>>> reported("CC(C)(C)c1ccc(C(=O)Nc2cccc(S(C)(=O)=O)c2)c(Oc2cccnc2C(F)(F)F)c1")
"10 to 20 µM"
>>> reported("NC(=O)c1cccc(NC(=O)c2ccccc2Oc2ccc(C(F)(F)F)cc2)c1")
"10 to 20 µM"
>>> reported("CN(C(=O)c1ccc(C(C)(C)C)cc1Oc1ccc(F)cc1Cl)c1cccc(S(C)(=O)=O)c1")
"2 to 10 µM"
>>> reported("Cc1ncccc1Oc1cc(C(C)(C)C)ccc1C(=O)Nc1cccc(S(C)(=O)=O)c1")
"> 20 µM"
>>> reported("CC(C)(C)c1ccc(C(=O)Nc2cccc(S(C)(=O)=O)c2)c(Oc2ncccc2C(F)(F)F)c1")
"10 to 20 µM"
>>> reported("CC(C)(C)c1ccc(C(=O)Nc2cccc(S(C)(=O)=O)c2)c(Oc2cccc(C(F)(F)F)n2)c1")
"10 to 20 µM"
>>> reported("CC(C)(C)c1ccc(C(=O)Nc2cccc(S(C)(=O)=O)c2)c(Oc2cnccc2C(F)(F)F)c1")
"2 to 10 µM"
>>> reported("CC(C)(C)c1ccc(C(=O)Nc2cccc(S(C)(=O)=O)c2)c(Oc2ncccc2C#N)c1")
"2 to 10 µM"
>>> reported("CC(C)(C)c1ccc(C(=O)Nc2cccc(S(C)(=O)=O)c2)c(Oc2ccc(F)cc2Cl)c1")
"10 to 20 µM"
>>> reported("CC(C)(C)c1ccc(C(=O)Nc2cccc(C(N)=O)c2)c(Oc2ccc(C(F)(F)F)nc2)c1")
"10 to 20 µM"
>>> reported("CNC(=O)c1cccc(NC(=O)c2ccc(C(C)(C)C)cc2Oc2ccc(F)cc2Cl)c1")
"2 to 10 µM"
>>> reported("NC(=O)c1cccc(NC(=O)c2ccccc2Oc2ccc(F)cc2)c1")
"10 to 20 µM"
>>> reported("CC(C)(C)c1ccc(C(=O)Nc2cccc(NS(C)(=O)=O)c2)c(Oc2ccc(F)cc2Cl)c1")
"10 to 20 µM"
>>> reported("Cc1ncccc1Oc1cc(C(C)(C)C)ccc1C(=O)Nc1cccc(C(N)=O)c1")
"> 20 µM"
>>> reported("CC(C)(C)c1ccc(C(=O)Nc2cccc(C(N)=O)c2)c(Oc2ccc(F)cc2Cl)c1")
"10 to 20 µM"
>>> reported("NC(=O)c1cccc(NC(=O)c2ccccc2Cc2ccccc2)c1")
"> 20 µM"
